target: Hypoxia-inducible factor 1-alpha (Homo sapiens); experiment: HIF reporter inhibition across pancreatic and renal lines – cell-based, luminescence, MIAPaCa-2, 786-0, panel, SAR follow-up (AID 652011); conditions: MIAPaCa-2/PANC HIF reporter, luciferase luminescence, desferoxamine, overnight, HIF1a, run 2; at 99 µM (top of the series)
Known inhibition of a selection of compounds

sample smiles: CC(C)(C)c1ccc(-c2noc(CCC(=O)Nc3cccc([N+](=O)[O-])c3)n2)cc1
unit abbrev: %
inhibition: 91.4
--
sample smiles: CCNC(=O)CCc1nc(-c2cccc(F)c2)no1
unit abbrev: %
inhibition: -31.8
--
sample smiles: CCc1ccc(-c2noc(CCC(=O)NC)n2)cc1
unit abbrev: %
inhibition: -34.1
--
sample smiles: CCCNC(=O)CCc1nc(-c2ccc(C(C)(C)C)cc2)no1
unit abbrev: %
inhibition: 9.39
--
sample smiles: CNC(=O)CCc1nc(-c2ccc(C(C)C)cc2)no1
unit abbrev: %
inhibition: -35.5
